Just for reference, ChEMBL document CHEMBL5316325 is where these values come from.

Tested on: Pseudomonas aeruginosa
measurementNotes: Antibiofilm activity against Pseudomonas aeruginosa PAO1 in ABTGC medium assessed as biofilm biomass at 1/2 times MIC incubated for 24 hrs by crystal violet staining based assay relative to control
Type: functional
endpointLabel: Activity (%)
// return numeric value only (unit: %, not printed)

These solved cases illustrate the format of a correct answer.
- Cc1cc(=O)c(O)c(CNC(=O)CCCCC(=O)N2CCN(c3cc4c(cc3F)c(=O)c(C(=O)O)cn4C3CC3)CC2)n1C: 86.3
- Cc1cc(=O)c(O)c(CNC(=O)CCC(CCC(=O)NCc2c(O)c(=O)cc(C)n2C)(CCC(=O)NCc2c(O)c(=O)cc(C)n2C)NC(=O)CCC(=O)N2CCN(c3cc4c(cc3F)c(=O)c(C(=O)O)cn4C3CC3)CC2)n1C: 20.9
- Cc1cc(=O)c(O)c(CNC(=O)CCC(=O)N2CCN(c3cc4c(cc3F)c(=O)c(C(=O)O)cn4C3CC3)CC2)n1C: 111.5
- Cc1cc(=O)c(O)c(CNC(=O)CCC(N)(CCC(=O)NCc2c(O)c(=O)cc(C)n2C)CCC(=O)NCc2c(O)c(=O)cc(C)n2C)n1C: 346.5
- Cn1cc(O)c(=O)cc1CNC(=O)CCC(=O)N1CCN(c2cc3c(cc2F)c(=O)c(C(=O)O)cn3C2CC2)CC1: 110.3
- Cc1cc(=O)c(O)c(CNC(=O)CCC(CCC(=O)NCc2c(O)c(=O)cc(C)n2C)(CCC(=O)NCc2c(O)c(=O)cc(C)n2C)NC(=O)CCCCC(=O)N2CCN(c3cc4c(cc3F)c(=O)c(C(=O)O)cn4C3CC3)CC2)n1C: 9.6
- O=C(CCC(=O)N1CCN(c2cc3c(cc2F)c(=O)c(C(=O)O)cn3C2CC2)CC1)NCc1ccccc1: 97.3
- Cc1cc(=O)c(O)cn1CCCn1cc(CCC(=O)N2CCN(c3cc4c(cc3F)c(=O)c(C(=O)O)cn4C3CC3)CC2)nn1: 127.7

Item: Cn1cc(O)c(=O)cc1CNC(=O)CCCCC(=O)N1CCN(c2cc3c(cc2F)c(=O)c(C(=O)O)cn3C2CC2)CC1 | Activity: 110.3

Item: O=C(CCC(=O)N1CCN(c2cc3c(cc2F)c(=O)c(C(=O)O)cn3C2CC2)CC1)NCc1cc(=O)c(O)c[nH]1 | Activity: 98.8

Item: Cc1cc(=O)c(O)cn1CCCNC(=O)CCC(=O)N1CCN(c2cc3c(cc2F)c(=O)c(C(=O)O)cn3C2CC2)CC1 | Activity: 78.2

Item: Cc1cc(=O)c(O)c(CNC(=O)CCC(CCC(=O)NCc2c(O)c(=O)cc(C)n2C)(CCC(=O)NCc2c(O)c(=O)cc(C)n2C)NC(=O)CCCC(=O)N2CCN(c3cc4c(cc3F)c(=O)c(C(=O)O)cn4C3CC3)CC2)n1C | Activity: 79.3

Item: O=C(CCC(=O)N1CCN(c2cc3c(cc2F)c(=O)c(C(=O)O)cn3C2CC2)CC1)NCc1cc(=O)c(O)cn1O | Activity: 54.2

----------
Tested on: Pseudomonas aeruginosa
measurementNotes: Antibiofilm activity against Pseudomonas aeruginosa PAO1 in ABTGC medium assessed as biofilm biomass at 1/4 times MIC incubated for 24 hrs by crystal violet staining based assay relative to control
Format: functional
endpointLabel: Activity

* Cc1cc(=O)c(O)c(CNC(=O)CCC(CCC(=O)NCc2c(O)c(=O)cc(C)n2C)(CCC(=O)NCc2c(O)c(=O)cc(C)n2C)NC(=O)CCC(=O)N2CCN(c3cc4c(cc3F)c(=O)c(C(=O)O)cn4C3CC3)CC2)n1C | 211.1%
* Cn1cc(O)c(=O)cc1CNC(=O)CCCC(=O)N1CCN(c2cc3c(cc2F)c(=O)c(C(=O)O)cn3C2CC2)CC1 | 23.4%
* Cn1cc(O)c(=O)cc1CNC(=O)CCCCC(=O)N1CCN(c2cc3c(cc2F)c(=O)c(C(=O)O)cn3C2CC2)CC1 | 24.9%
* Cc1cc(=O)c(O)c(CNC(=O)CCCCCCC(=O)N2CCN(c3cc4c(cc3F)c(=O)c(C(=O)O)cn4C3CC3)CC2)n1C | 141.1%
* Cc1cc(=O)c(O)c(CNC(=O)CCC(CCC(=O)NCc2c(O)c(=O)cc(C)n2C)(CCC(=O)NCc2c(O)c(=O)cc(C)n2C)NC(=O)CCCCC(=O)N2CCN(c3cc4c(cc3F)c(=O)c(C(=O)O)cn4C3CC3)CC2)n1C | 158.1%

Attention now shifts to the item below.
Item: Cc1cc(=O)c(O)c(CNC(=O)CCC(=O)N2CCN(c3cc4c(cc3F)c(=O)c(C(=O)O)cn4C3CC3)CC2)n1C | Activity: 21.7%

----------
Listing: MIC of selected compounds
Tested on: Pseudomonas aeruginosa
measurementNotes: Antibacterial activity against Pseudomonas aeruginosa PAO1 in MHB medium assessed as bacterial growth inhibition by CLSI based broth microdilution method
Assay type: functional
// return numeric value only (unit: µM, not printed)

- Cn1cc(O)c(=O)cc1CNC(=O)CCC(=O)N1CCN(c2cc3c(cc2F)c(=O)c(C(=O)O)cn3C2CC2)CC1: 0.88

Item: O=C(CCC(=O)N1CCN(c2cc3c(cc2F)c(=O)c(C(=O)O)cn3C2CC2)CC1)NCc1cc(=O)c(O)cn1O | MIC: 1.76

Item: Cc1cc(=O)c(O)c(CNC(=O)CCCCC(=O)N2CCN(c3cc4c(cc3F)c(=O)c(C(=O)O)cn4C3CC3)CC2)n1C | MIC: 1.64

Item: O=C(CCC(=O)N1CCN(c2cc3c(cc2F)c(=O)c(C(=O)O)cn3C2CC2)CC1)NCc1cc(=O)c(O)c[nH]1 | MIC: 1.81

Item: Cc1cc(=O)c(O)c(CNC(=O)CCC(CCC(=O)NCc2c(O)c(=O)cc(C)n2C)(CCC(=O)NCc2c(O)c(=O)cc(C)n2C)NC(=O)CCCC(=O)N2CCN(c3cc4c(cc3F)c(=O)c(C(=O)O)cn4C3CC3)CC2)n1C | MIC: 1.78

Item: Cc1cc(=O)c(O)c(CNC(=O)CCCC(=O)N2CCN(c3cc4c(cc3F)c(=O)c(C(=O)O)cn4C3CC3)CC2)n1C | MIC: 6.72

Item: Cn1cc(O)c(=O)cc1CNC(=O)CCCC(=O)N1CCN(c2cc3c(cc2F)c(=O)c(C(=O)O)cn3C2CC2)CC1 | MIC: 0.86

Item: Cc1cc(=O)c(O)c(CNC(=O)CCC(CCC(=O)NCc2c(O)c(=O)cc(C)n2C)(CCC(=O)NCc2c(O)c(=O)cc(C)n2C)NC(=O)CCC(=O)N2CCN(c3cc4c(cc3F)c(=O)c(C(=O)O)cn4C3CC3)CC2)n1C | MIC: 14.4

Item: Cc1cc(=O)c(O)cn1CCCn1cc(CCC(=O)N2CCN(c3cc4c(cc3F)c(=O)c(C(=O)O)cn4C3CC3)CC2)nn1 | MIC: 103

Item: Cc1cc(=O)c(O)c(CNC(=O)CCC(CCC(=O)NCc2c(O)c(=O)cc(C)n2C)(CCC(=O)NCc2c(O)c(=O)cc(C)n2C)NC(=O)CCCCC(=O)N2CCN(c3cc4c(cc3F)c(=O)c(C(=O)O)cn4C3CC3)CC2)n1C | MIC: 3.51

----------
Listing: Activity of selected compounds
Test system: Pseudomonas aeruginosa
measurementNotes: Antibiofilm activity against Pseudomonas aeruginosa PAO1 in ABTGC medium assessed as biofilm biomass at 1/2 times MIC incubated for 24 hrs by crystal violet staining based assay relative to control
Type: functional
// return numeric value only (unit: %, not printed)

- Cc1cc(=O)c(O)c(CNC(=O)CCCCCCC(=O)N2CCN(c3cc4c(cc3F)c(=O)c(C(=O)O)cn4C3CC3)CC2)n1C: 114.9
- Cc1cc(=O)c(O)c(CNC(=O)CCCC(=O)N2CCN(c3cc4c(cc3F)c(=O)c(C(=O)O)cn4C3CC3)CC2)n1C: 116.8
- Cn1cc(O)c(=O)cc1Cn1cc(CCC(=O)N2CCN(c3cc4c(cc3F)c(=O)c(C(=O)O)cn4C3CC3)CC2)nn1: 133.7

Item: Cn1cc(O)c(=O)cc1CNC(=O)CCCC(=O)N1CCN(c2cc3c(cc2F)c(=O)c(C(=O)O)cn3C2CC2)CC1 | Activity: 189

----------
Listing: Activity of selected compounds
Tested on: Pseudomonas aeruginosa
measurementNotes: Antibiofilm activity against Pseudomonas aeruginosa PAO1 in ABTGC medium assessed as biofilm biomass at 1/4 times MIC incubated for 24 hrs by crystal violet staining based assay relative to control
Type: functional
// return numeric value only (unit: %, not printed)

These solved cases illustrate the format of a correct answer.
* Cn1cc(O)c(=O)cc1CNC(=O)CCC(=O)N1CCN(c2cc3c(cc2F)c(=O)c(C(=O)O)cn3C2CC2)CC1 | 29.2
* O=C(CCC(=O)N1CCN(c2cc3c(cc2F)c(=O)c(C(=O)O)cn3C2CC2)CC1)NCc1ccccc1 | 102.4

Item: Cc1cc(=O)c(O)c(CNC(=O)CCC(CCC(=O)NCc2c(O)c(=O)cc(C)n2C)(CCC(=O)NCc2c(O)c(=O)cc(C)n2C)NC(=O)CCCC(=O)N2CCN(c3cc4c(cc3F)c(=O)c(C(=O)O)cn4C3CC3)CC2)n1C | Activity: 26.1

Item: Cc1cc(=O)c(O)c(CNC(=O)CCCCC(=O)N2CCN(c3cc4c(cc3F)c(=O)c(C(=O)O)cn4C3CC3)CC2)n1C | Activity: 27
